Cited source for all entries: patent US9902736B2

Tested on: Becap-37
Experiment: Solid tumor cell growth inhibition, MTT, 72 h
Assay type: cell-based
Details: Homo sapiens
property label: IC50 (µg/mL)
Give the value, in units of µg/mL, as a plain number.

Look over these answered cases.
C=C1C(=O)[C@]23[C@H](OC(=O)/C=C/c4ccccc4)[C@H]1CC[C@H]2[C@@]12CO[C@@]3(O)[C@@H](O)[C@@H]1C(C)(C)CCC2=O [BS-OR-019]
0.89
C=C1C(=O)[C@]23[C@H](OC(=O)c4ccccc4Cl)[C@H]1CC[C@H]2[C@@]12CO[C@@]3(O)[C@@H](O)[C@@H]1C(C)(C)CCC2=O [BS-OR-003]
1.12
C=C1C(=O)[C@]23[C@H](OC(=O)c4ccccc4)[C@H]1CC[C@H]2[C@@]12CO[C@@]3(O)[C@@H](O)[C@@H]1C(C)(C)CCC2=O [BS-OR-001]
1.12

## Task Entry under review: C=C1C(=O)[C@]23[C@H](OC(=O)C4CCC(NC(=O)c5ccccn5)CC4)[C@H]1CC[C@H]2[C@@]12CO[C@@]3(O)[C@@H](O)[C@@H]1C(C)(C)CCC2=O (some centres unmarked) [BS-OR-083] . Reported IC50?
## Result 2.21

## Task Would you kindly repeat that for C=C1C(=O)[C@]23[C@H](OC(=O)c4ccc(OC)cc4)[C@H]1CC[C@H]2[C@@]12CO[C@@]3(O)[C@@H](O)[C@@H]1C(C)(C)CCC2=O [BS-OR-005] ?
## Result 0.7

## Task Would you kindly repeat that for C=C1C(=O)[C@]23[C@H](OC(=O)c4cccc(C)c4)[C@H]1CC[C@H]2[C@@]12CO[C@@]3(O)[C@@H](O)[C@@H]1C(C)(C)CCC2=O [BS-OR-008] ?
## Result 1.08

## Task Would you kindly repeat that for C=C1C(=O)[C@]23[C@H](OC(=O)c4ccc(C)cc4)[C@H]1CC[C@H]2[C@@]12CO[C@@]3(O)[C@@H](O)[C@@H]1C(C)(C)CCC2OC(C)=O (some centres unmarked) [BS-OR-090] ?
## Result 0.99

## Task Would you kindly repeat that for C=C1C(=O)[C@]23[C@H](OC(=O)C4CCN(S(=O)(=O)CC)CC4)[C@H]1CC[C@H]2[C@@]12CO[C@@]3(O)[C@@H](O)[C@@H]1C(C)(C)CCC2=O [BS-OR-038] ?
## Result 3.04

## Task Would you kindly repeat that for C=C1C(=O)[C@]23[C@H](OC(=O)c4ccc(OC)cc4)[C@H]1CC[C@H]2[C@@]12CO[C@@]3(O)[C@@H](O)[C@@H]1C(C)(C)CCC2OC(C)=O (some centres unmarked) [BS-OR-091] ?
## Result 1.26

## Task Would you kindly repeat that for C=C1C(=O)[C@]23[C@H](OC(=O)c4cccs4)[C@H]1CC[C@H]2[C@@]12CO[C@@]3(O)[C@@H](O)[C@@H]1C(C)(C)CCC2=O [BS-OR-007] ?
## Result 1.02

## Task Would you kindly repeat that for C=C1C(=O)[C@]23[C@H](OC(=O)c4ccc(C)cc4)[C@H]1CC[C@H]2[C@@]12CO[C@@]3(O)[C@@H](O)[C@@H]1C(C)(C)CCC2=O [BS-OR-004] ?
## Result 0.66

====

System: Hela
Experiment: Solid tumor cell growth inhibition, MTT, 72 h
Format: cell-based, human
Conditions: Homo sapiens, HeLa; 72 h, MTT
Consider the cut-off 2 µg/mL. If the recorded IC50 is strictly smaller, the label is TRUE; if not, the label is FALSE.

Worked examples follow.
C=C1C(=O)[C@]23[C@H](OC(=O)c4ccc(Cl)cc4)[C@H]1CC[C@H]2[C@@]12CO[C@@]3(O)[C@@H](O)[C@@H]1C(C)(C)CCC2=O
TRUE
C=C1C(=O)[C@]23[C@H](OC(=O)C4CCN(S(=O)(=O)CC)CC4)[C@H]1CC[C@H]2[C@@]12CO[C@@]3(O)[C@@H](O)[C@@H]1C(C)(C)CCC2=O
FALSE
C=C1C(=O)[C@]23[C@H](OC(=O)c4ccncc4)[C@H]1CC[C@H]2[C@@]12CO[C@@]3(O)[C@@H](O)[C@@H]1C(C)(C)CCC2=O
FALSE

## Task Strictly below 2 µg/mL: is that where IC50 of "C=C1C(=O)[C@]23[C@H](OC(=O)c4ccccc4)[C@H]1CC[C@H]2[C@@]12CO[C@@]3(O)[C@@H](O)[C@@H]1C(C)(C)CCC2=O" sits?
## Result TRUE

## Task Would you kindly repeat that for "C=C1C(=O)[C@]23[C@H](OC(=O)c4cccnc4)[C@H]1CC[C@H]2[C@@]12CO[C@@]3(O)[C@@H](O)[C@@H]1C(C)(C)CCC2=O" ?
## Result FALSE

## Task Would you kindly repeat that for "C=C1C(=O)[C@]23[C@H](OC(=O)C4CCN(S(=O)(=O)c5cccc([N+](=O)[O-])c5)CC4)[C@H]1CC[C@H]2[C@@]12CO[C@@]3(O)[C@@H](O)[C@@H]1C(C)(C)CCC2=O" ?
## Result FALSE

## Task Would you kindly repeat that for "C=C1C(=O)[C@]23[C@H](OC(=O)c4ccccc4Cl)[C@H]1CC[C@H]2[C@@]12CO[C@@]3(O)[C@@H](O)[C@@H]1C(C)(C)CCC2=O" ?
## Result TRUE

## Task Would you kindly repeat that for "C=C1C(=O)[C@]23[C@H](OC(=O)C4CCN(S(=O)(=O)c5ccccc5)CC4)[C@H]1CC[C@H]2[C@@]12CO[C@@]3(O)[C@@H](O)[C@@H]1C(C)(C)CCC2=O" ?
## Result FALSE

====

System: A549
Assay: Solid tumor cell growth inhibition, MTT, 72 h
Type: cell-based
Conditions: Homo sapiens
property label: IC90 (µg/mL)
Give the value, in units of µg/mL, as a plain number.

C=C1C(=O)[C@]23[C@H](OC(=O)c4ccncc4)[C@H]1CC[C@H]2[C@@]12CO[C@@]3(O)[C@@H](O)[C@@H]1C(C)(C)CCC2=O [BS-OR-012]
10.7
C=C1C(=O)[C@]23[C@H](OC(=O)c4ccc(C)cc4)[C@H]1CC[C@H]2[C@@]12CO[C@@]3(O)[C@@H](O)[C@@H]1C(C)(C)CCC2=O [BS-OR-004]
4.9
C=C1C(=O)[C@]23[C@H](OC(=O)c4cccs4)[C@H]1CC[C@H]2[C@@]12CO[C@@]3(O)[C@@H](O)[C@@H]1C(C)(C)CCC2=O [BS-OR-007]
5.34

## Task Entry under review: C=C1C(=O)[C@]23[C@H](OC(=O)c4ccc(OC)cc4)[C@H]1CC[C@H]2[C@@]12CO[C@@]3(O)[C@@H](O)[C@@H]1C(C)(C)CCC2=O [BS-OR-005] . Reported IC90?
## Result 4.31

## Task Would you kindly repeat that for C=C1C(=O)[C@]23[C@H](OC(=O)C4CC4)[C@H]1CC[C@H]2[C@@]12CO[C@@]3(O)[C@@H](O)[C@@H]1C(C)(C)CCC2=O [BS-OR-017] ?
## Result 6.29

## Task Would you kindly repeat that for C=C1C(=O)[C@]23[C@H](OC(=O)c4cccc(C)c4)[C@H]1CC[C@H]2[C@@]12CO[C@@]3(O)[C@@H](O)[C@@H]1C(C)(C)CCC2=O [BS-OR-008] ?
## Result 6.86

## Task Would you kindly repeat that for C=C1C(=O)[C@]23[C@H](OC(=O)c4cccnc4)[C@H]1CC[C@H]2[C@@]12CO[C@@]3(O)[C@@H](O)[C@@H]1C(C)(C)CCC2=O [BS-OR-011] ?
## Result 9.47

## Task Would you kindly repeat that for C=C1C(=O)[C@]23[C@H](OC(=O)C4CCN(S(=O)(=O)CC)CC4)[C@H]1CC[C@H]2[C@@]12CO[C@@]3(O)[C@@H](O)[C@@H]1C(C)(C)CCC2=O [BS-OR-038] ?
## Result 10.2

## Task Would you kindly repeat that for C=C1C(=O)[C@]23[C@H](OC(=O)c4ccc(OC)cc4)[C@H]1CC[C@H]2[C@@]12CO[C@@]3(O)[C@@H](O)[C@@H]1C(C)(C)CCC2OC(C)=O (stereo partly shown) [BS-OR-091] ?
## Result 7.54

## Task Would you kindly repeat that for C=C1C(=O)[C@]23[C@H](OC(=O)c4ccccc4)[C@H]1CC[C@H]2[C@@]12CO[C@@]3(O)[C@@H](O)[C@@H]1C(C)(C)CCC2=O [BS-OR-001] ?
## Result 6.08

====

Readings of IC50 for the listed compounds
System: Hela
Assay: Solid tumor cell growth inhibition, MTT, 72 h
Type: cell-based, human
Conditions: Homo sapiens, HeLa; 72 h, MTT
Give the value, in units of µg/mL, as a plain number.

Look over these answered cases.
C=C1C(=O)[C@]23[C@H](OC(=O)c4ccc(C)cc4)[C@H]1CC[C@H]2[C@@]12CO[C@@]3(O)[C@@H](O)[C@@H]1C(C)(C)CCC2OC(C)=O (stereo partly drawn)
0.96
C=C1C(=O)[C@]23[C@H](OC(=O)C4CC4)[C@H]1CC[C@H]2[C@@]12CO[C@@]3(O)[C@@H](O)[C@@H]1C(C)(C)CCC2=O
1.35
C=C1C(=O)[C@]23[C@H](OC(=O)c4cccs4)[C@H]1CC[C@H]2[C@@]12CO[C@@]3(O)[C@@H](O)[C@@H]1C(C)(C)CCC2=O
1.64

## Task Entry under review: "C=C1C(=O)[C@]23[C@H](OC(=O)c4cccc(C)c4)[C@H]1CC[C@H]2[C@@]12CO[C@@]3(O)[C@@H](O)[C@@H]1C(C)(C)CCC2=O" . Reported IC50?
## Result 1.45

## Task Would you kindly repeat that for "C=C1C(=O)[C@]23[C@H](OC(=O)c4ccc(Cl)cc4)[C@H]1CC[C@H]2[C@@]12CO[C@@]3(O)[C@@H](O)[C@@H]1C(C)(C)CC[C@@H]2OC(C)=O" ?
## Result 1.02

## Task Would you kindly repeat that for C=C1C(=O)[C@]23[C@H](OC(=O)C4CCC(NC(=O)c5ccccn5)CC4)[C@H]1CC[C@H]2[C@@]12CO[C@@]3(O)[C@@H](O)[C@@H]1C(C)(C)CCC2=O (stereo partly drawn) ?
## Result 1.92
